# Tested on: Human immunodeficiency virus 1
# test.description: Antiviral activity against HIV1 with reverse transcriptase IRLL98 mutation in MT4 cells after 5 days by MTT method relative to wild type NL4-3
# Assay type: functional
This listing pairs compounds with measured Fold change.
Answer using only a numeral; do not append any unit.

// solved cases for Fold change follow
CCc1c(Cc2c(Cl)cccc2Cl)nc(SCc2ccc(C#N)cc2)[nH]c1=O ... 194
Cc1c(Cc2c(F)cccc2F)nc(SCc2ccc3c(c2)OCO3)[nH]c1=O ... 1.8
Cc1c(Cc2c(Cl)cccc2Cl)nc(SCC(=O)c2ccc(C#N)cc2)[nH]c1=O ... 3.2

Now take the following compound into account.
Query: Look up Fold change with Human immunodeficiency virus 1 for this compound: "Cc1cn([C@H]2C[C@H](N=[N+]=[N-])[C@@H](CO)O2)c(=O)[nH]c1=O"
Reply: 3
